System: EKVX NSCLC
Test: NCI tumour cell line growth inhibition, 48 h
readout-label: TGI

CN(C)CCNC(=O)c1cccc2nc3c(nc12)-c1ccccc1C3=O | 48.6 µM
O=C1/C(=C/c2ccccc2[N+](=O)[O-])N=C(c2ccccc2)N1C1Nc2cc3c(cc2S1)NC(N1C(=O)/C(=C/c2ccccc2[N+](=O)[O-])N=C1c1ccccc1)S3 (stereo unspecified) | > 100 µM
COc1ccc2c(c1)N=C1CSC(c3ccccc3Cl)N1C2 (stereo unspecified) | 22 µM
O=c1[nH]nc(-c2ccccc2)n1/N=C/c1c(O)ccc2ccccc12 | > 100 µM
Nc1c(C(=O)Nc2ccccc2)[n+]([O-])c2ccccc2[n+]1[O-] | 56.9 µM
COC(=O)/C=C1\CCC(C)(C(=O)NS(=O)(=O)c2ccc(C)cc2)C1(C)C (stereo unspecified) | > 100 µM

Could you report TGI for every entry in the following list?
1. CCCCc1ccc(Nc2ncc3[nH]cnc3n2)cc1
2. COC(=O)/C=C(/C(=O)OC)c1c(C)c(C)c2c(C)cc(C)cc(C)c1-2
3. Cc1cc(S(=O)(=O)O)c(NC(=O)C(=O)C2C=CCS2(=O)=O)cc1Cl (stereo unspecified)
4. NCCNc1cccc2ccccc12
5. COc1ccc2nc3cc(Cl)ccc3c(NCCCNCCC(C)O)c2c1 (stereo unspecified)
6. Cc1cc(Cc2cc(C)cc(C(C)(C)C)c2O)c(O)c(C(C)(C)C)c1

Output line:
["98.1 µM", "> 100 µM", "> 100 µM", "> 100 µM", "2.41 µM", "12.1 µM"]
